Biological target: UniProt:O14578
Sequence (O14578 whole entry): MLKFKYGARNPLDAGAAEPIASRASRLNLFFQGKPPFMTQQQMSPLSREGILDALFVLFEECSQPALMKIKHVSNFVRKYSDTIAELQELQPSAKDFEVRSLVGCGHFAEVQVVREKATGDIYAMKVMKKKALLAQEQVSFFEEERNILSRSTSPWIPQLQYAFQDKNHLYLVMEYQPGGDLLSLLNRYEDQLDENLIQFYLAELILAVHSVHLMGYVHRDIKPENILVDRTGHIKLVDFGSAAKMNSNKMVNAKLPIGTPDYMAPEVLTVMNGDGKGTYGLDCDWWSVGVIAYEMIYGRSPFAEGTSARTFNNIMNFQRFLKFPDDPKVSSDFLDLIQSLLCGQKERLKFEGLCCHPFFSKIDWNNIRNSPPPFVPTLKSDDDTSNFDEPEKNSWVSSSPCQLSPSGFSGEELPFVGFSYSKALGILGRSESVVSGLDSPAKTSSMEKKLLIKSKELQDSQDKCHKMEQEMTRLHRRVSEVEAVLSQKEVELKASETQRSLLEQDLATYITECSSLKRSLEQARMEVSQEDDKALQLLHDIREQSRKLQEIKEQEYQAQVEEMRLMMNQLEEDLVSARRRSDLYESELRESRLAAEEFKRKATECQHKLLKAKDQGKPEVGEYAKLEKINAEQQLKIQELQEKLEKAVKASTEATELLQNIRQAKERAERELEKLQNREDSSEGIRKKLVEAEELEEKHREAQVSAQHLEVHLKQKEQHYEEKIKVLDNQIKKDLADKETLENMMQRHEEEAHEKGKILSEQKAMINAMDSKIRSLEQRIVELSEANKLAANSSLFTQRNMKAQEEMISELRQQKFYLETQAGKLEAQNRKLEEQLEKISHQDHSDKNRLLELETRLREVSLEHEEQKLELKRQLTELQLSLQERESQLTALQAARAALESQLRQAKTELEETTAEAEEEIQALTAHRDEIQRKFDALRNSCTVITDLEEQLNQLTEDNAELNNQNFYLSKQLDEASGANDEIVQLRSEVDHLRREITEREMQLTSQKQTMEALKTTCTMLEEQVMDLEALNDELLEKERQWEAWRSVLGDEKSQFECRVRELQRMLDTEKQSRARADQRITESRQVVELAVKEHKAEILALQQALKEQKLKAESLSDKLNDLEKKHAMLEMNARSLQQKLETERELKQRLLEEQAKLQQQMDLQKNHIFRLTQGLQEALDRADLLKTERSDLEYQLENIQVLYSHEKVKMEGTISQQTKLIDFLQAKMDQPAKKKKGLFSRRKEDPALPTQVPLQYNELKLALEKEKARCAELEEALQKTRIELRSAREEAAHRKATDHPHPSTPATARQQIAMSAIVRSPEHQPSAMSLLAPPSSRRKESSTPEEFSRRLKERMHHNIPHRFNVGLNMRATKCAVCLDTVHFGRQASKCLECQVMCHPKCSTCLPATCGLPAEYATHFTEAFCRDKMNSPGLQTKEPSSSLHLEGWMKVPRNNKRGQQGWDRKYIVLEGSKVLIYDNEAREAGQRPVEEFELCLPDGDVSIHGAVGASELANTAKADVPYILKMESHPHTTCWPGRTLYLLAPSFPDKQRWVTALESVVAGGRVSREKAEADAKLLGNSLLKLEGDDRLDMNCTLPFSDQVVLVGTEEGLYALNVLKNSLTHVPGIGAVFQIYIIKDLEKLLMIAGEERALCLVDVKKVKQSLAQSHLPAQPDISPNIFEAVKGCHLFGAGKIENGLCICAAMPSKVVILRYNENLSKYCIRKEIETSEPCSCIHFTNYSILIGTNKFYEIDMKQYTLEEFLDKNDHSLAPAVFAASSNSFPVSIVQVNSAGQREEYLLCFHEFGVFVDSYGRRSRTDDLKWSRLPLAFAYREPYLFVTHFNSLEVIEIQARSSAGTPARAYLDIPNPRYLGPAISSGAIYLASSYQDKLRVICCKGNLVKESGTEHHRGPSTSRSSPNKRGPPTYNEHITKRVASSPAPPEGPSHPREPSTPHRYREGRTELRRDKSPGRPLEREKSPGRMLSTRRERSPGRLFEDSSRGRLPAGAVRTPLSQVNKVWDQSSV
Assay: TR-FRET Based Assay
quantity_measured: pIC50
Note on units: pIC50 is unitless, being -log10 of a concentration expressed in mol/L.

Retrieve pIC50 measured for CN(C)C(Cc1ccccc1)C(=O)Nc1ccc(-c2ccnc3[nH]ccc23)cc1 (stereo unspecified) and print it.
5.82
